- protocol summary: toxicity in mice in groups
- measurement conditions: mouse, in vivo, ip; read-out: ratio LD50 (isolated mice)/LD50 (mice in groups)
value kind: selectivity ratio
No unit in the answer, please; the number alone is enough.

Item O=C(CC(=O)N(c1ccccc1)c1ccccc1)NO [CRL 40,385] has what recorded selectivity ratio?
1.43

* * *

- protocol summary: solubility in distilled water
- Format: physicochemical
- measurement conditions: read-out: solubility limit
value kind: solubility

Need solubility of O=C(CC(=O)Nc1c(Cl)cccc1Cl)NO [CRL 40,510] , thanks.
~13 mg/mL

* * *

- protocol summary: toxicity in mice in groups
- measurement conditions: mouse, in vivo, ip, mice in groups
value kind: LD50 (mg/kg)
Only the number, expressed in mg/kg, is required.

Please look up its LD50: O=C(CC(=O)N(c1ccccc1)c1ccccc1)NO
1050

Data provenance is patent US4151300A.
